Data origin: paper PMC4034419

assay system: T1, Pfu-TkodTS (thumb swap) (Pyrococcus furiosus / Thermococcus …, UniProt P61875 1-590+D0VWU9:590-774, internal_change)
T1 sequence: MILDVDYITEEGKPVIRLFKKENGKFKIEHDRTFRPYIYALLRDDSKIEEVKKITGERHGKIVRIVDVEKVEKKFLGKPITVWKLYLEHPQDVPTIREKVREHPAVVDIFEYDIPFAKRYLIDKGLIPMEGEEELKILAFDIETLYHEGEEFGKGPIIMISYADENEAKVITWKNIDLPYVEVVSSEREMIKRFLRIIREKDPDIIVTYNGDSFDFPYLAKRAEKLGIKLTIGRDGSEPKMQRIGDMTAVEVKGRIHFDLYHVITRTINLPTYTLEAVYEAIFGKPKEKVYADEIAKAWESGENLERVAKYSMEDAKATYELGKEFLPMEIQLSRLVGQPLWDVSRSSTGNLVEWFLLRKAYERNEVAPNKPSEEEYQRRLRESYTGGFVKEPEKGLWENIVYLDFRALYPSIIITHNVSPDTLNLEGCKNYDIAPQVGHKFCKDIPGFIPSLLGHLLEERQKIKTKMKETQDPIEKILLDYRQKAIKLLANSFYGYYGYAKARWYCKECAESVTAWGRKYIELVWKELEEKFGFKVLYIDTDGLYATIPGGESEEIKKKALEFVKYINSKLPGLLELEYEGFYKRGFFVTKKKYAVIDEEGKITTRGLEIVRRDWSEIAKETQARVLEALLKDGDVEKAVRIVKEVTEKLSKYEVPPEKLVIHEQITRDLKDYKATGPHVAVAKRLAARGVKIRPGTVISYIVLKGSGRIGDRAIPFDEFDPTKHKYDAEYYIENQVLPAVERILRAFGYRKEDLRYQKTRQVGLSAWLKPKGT
protocol details: fluorescence anisotropy; 20 mM Tris-HCl pH 8.5, 10 mM KCl, 10 mM (NH4)2SO4 (ionic strength 40); 10 nM Hex primer-template; rest of buffer and temperature not in material
test settings: protein: recombinant; label: 5'-hexachlorofluorescein on primer (strand 1); 5' overhang 20 nt on template (strand 2)
result type: Kd (nM)
One number for each entry, in nM.

Q: Any idea what its Kd is? The binder is Hex primer-template (24/44) (dsDNA) DNA 1: GGGGATCCTCTAGAGTCGACCTGC DNA 2: GGAGACAAGCTTGCTTGCCAGCAGGTCGACTCTAGAGGATCCCC
Result: 95
